# Cond: pH 1.0
Listed next: entries and their corresponding logD.
Lab note: write the figure by itself, no unit.

O=C(O)C(c1ccc(Cl)cc1)c1ccc(Cl)cc1 :: 4.64

Continue with the compound presented below.
Query: Requested read-out: logD. Entry: CC(Oc1cc(Cl)c(Cl)cc1Cl)C(=O)O (configuration not stated)
Reply: 3.8

----------
# Test Summary: from Villegas-Navarro, A.; Rodriguez, M. (1984). Structure-activity relationships between quinone moieties and inhibition of sodium transport. In Kuchar, M. (Ed.) QSAR in Design of Bioactive Compounds. …
Outcome Measure: logP
Lab note: write the figure by itself, no unit.

Query: Requested read-out: logP. Entry: CC1=CC(=O)C(C(C)C)=CC1=O
Reply: 2.2

----------
# Test Summary: method code SF-CR+AS, from DOI: 10.1021/bi00514a045, PMID: 7248282
# Cond: pH 7.0
Outcome Measure: logD
Lab note: write the figure by itself, no unit.

Query: Requested read-out: logD. Entry: N#CSO
Reply: 0.32

----------
# Test Summary: method code SF-AS, from DOI: 10.1007/bf02877675, PMID: 411721
Listed next: entries and their corresponding logP.
Lab note: write the figure by itself, no unit.

In the examples that follow, each entry is paired with its recorded logP.
Cc1ccc(NN=C(C#N)C#N)cc1 :: 3.02
N#CC(C#N)=NNc1cccc(Cl)c1 :: 3.13

Continue with the compound presented below.
Query: Requested read-out: logP. Entry: N#CC(C#N)=NNc1ccccc1
Reply: 2.49

----------
# Test Summary: method code SF-AS, from DOI: 10.1021/jf60220a002
Outcome Measure: logP
Lab note: write the figure by itself, no unit.

Query: Requested read-out: logP. Entry: CCOP(N)(=O)O/N=C(/C#N)c1ccccc1 (stereo unspecified)
Reply: 0.72

----------
# Test Summary: method code SF-AS, from DOI: 10.1248/cpb.39.1217
Outcome Measure: logP
Lab note: write the figure by itself, no unit.

Query: Requested read-out: logP. Entry: Cc1nccnc1CC(C)C
Reply: 1.96

----------
# Test Summary: from Tomlinson, E.; Davis, S.; Parr, G.; James, M.; Farraj, N.; Kinkel, J.; Gaisser, D.; Wynne, H. (1986). The filter-probe extractor: a versatile tool for the rapid determination of solute oil/water …
Outcome Measure: logP
Lab note: write the figure by itself, no unit.

Query: Requested read-out: logP. Entry: CNC(=O)[C@H](Cc1ccccc1)NC(C)=O
Reply: 0.5

----------
Listed next: entries and their corresponding logP.
# Test Summary: method code SF-GLC, from DOI: 10.1016/0147-6513(82)90020-3, PMID: 7106034
Lab note: write the figure by itself, no unit.

O=S1OCC2C(CO1)C1(Cl)C(Cl)=C(Cl)C2(Cl)C1(Cl)Cl (configuration not stated) :: 3.83

Continue with the compound presented below.
Query: Requested read-out: logP. Entry: CCN(CC)C(=S)SSC(=S)N(CC)CC
Reply: 3.88

----------
# Test Summary: method code SF, from DOI: 10.1021/jm5017544, PMID: 25671691
# Cond: pH 7.4
Outcome Measure: logD
Lab note: write the figure by itself, no unit.

Query: Requested read-out: logD. Entry: CN(C)c1ccc(N=Nc2nc3ccc(OCCOCCOCCF)cc3s2)cc1
Reply: 2.05

----------
Outcome Measure: logP
Lab note: write the figure by itself, no unit.

In the examples that follow, each entry is paired with its recorded logP.
CC(C)(CCC(CO[N+](=O)[O-])O[N+](=O)[O-])C(=O)Oc1ccccc1C(=O)O (configuration not stated) :: 3.33
O=C(CCCCC(CO[N+](=O)[O-])O[N+](=O)[O-])Oc1ccccc1C(=O)O (configuration not stated) :: 2.97

Continue with the compound presented below.
Query: Requested read-out: logP. Entry: CC(C)(CO[N+](=O)[O-])C(=O)Oc1ccccc1C(=O)O
Reply: 2.32

----------
# Test Summary: method code SF-HPLC, from DOI: 10.1016/0731-7085(91)80215-u, PMID: 1821151
# Cond: pH 7.4
Listed next: entries and their corresponding logD.
Lab note: write the figure by itself, no unit.

In the examples that follow, each entry is paired with its recorded logD.
CCCCC(=O)OCC(c1cncn1C)C(CC)C(=O)OCC1CCCCC1 (stereo unspecified) :: 5.56
CCC(C(=O)OCc1ccccc1)C(COC(=O)c1cccc(Cl)c1)c1cncn1C (stereo unspecified) :: 5.64
CCC(=O)OCC(c1cncn1C)C(CC)C(=O)OCc1ccccc1 (stereo unspecified) :: 3.3
CCC(C(=O)OCc1ccccc1)C(COC(=O)c1ccccc1)c1cncn1C (stereo unspecified) :: 4.57
CCCCC(=O)OCC(c1cncn1C)C(CC)C(=O)OCc1ccccc1 (stereo unspecified) :: 4.43

Continue with the compound presented below.
Query: Requested read-out: logD. Entry: CCC(C(=O)OCc1ccccc1)C(COC(C)=O)c1cncn1C (stereo unspecified)
Reply: 2.87

----------
Outcome Measure: logP
Lab note: write the figure by itself, no unit.

Oc1c(Cl)cccc1Cl :: 2.92

Query: Requested read-out: logP. Entry: Oc1c(Cl)c(Cl)cc(Cl)c1Cl
Reply: 4.47

----------
Outcome Measure: logP
Lab note: write the figure by itself, no unit.

Query: Requested read-out: logP. Entry: Clc1ccc2ccccc2c1
Reply: 4.07

----------
# Test Summary: method code SF-AS, from DOI: 10.1016/j.bmc.2008.07.057, PMID: 18706818
# Cond: pH 7.4
Outcome Measure: logD
Lab note: write the figure by itself, no unit.

CCCCC1(C(N)=O)CCC=[N+]1[O-] (configuration not stated) :: -0.18

Continue with the compound presented below.
Query: Requested read-out: logD. Entry: CCCC1(C(N)=O)CCC=[N+]1[O-] (configuration not stated)
Reply: -0.68

----------
# Test Summary: method code SF-AS, from DOI: 10.1562/0031-8655(2003)0780411sacotn2.0.co2, PMID: 14626671
# Cond: pH 6.8
Listed next: entries and their corresponding logD.

COc1c(O)c2c(=O)cc(OC)c3c4c(OC)cc(=O)c5c(O)c(NCCN(C)C)c6c(c(c1C(C(C)=O)=C(C)C6)c23)c54 :: 0.5

Continue with the compound presented below.
Query: Requested read-out: logD. Entry: COC1=C2CC(C)=c3c(C(C)=O)c(OC)c(O)c4c3c2c2c(cc(OC)c3c(OC)cc(O)c4c32)C(=O)C1=O
Reply: 1.67

----------
# Test Summary: method code SF, from DOI: 10.1016/s0223-5234(00)80025-2, PMID: 11278041
# Cond: pH 7.4
Outcome Measure: logD
Lab note: write the figure by itself, no unit.

Query: Requested read-out: logD. Entry: CC(C)Cc1ccc(C(C)C(=O)OCN2C(=O)CCC2=O)cc1 (stereo unspecified)
Reply: 2.62

----------
# Test Summary: method code SF, from DOI: 10.1002/jps.2600830714, PMID: 7965679
Listed next: entries and their corresponding logP.
Lab note: write the figure by itself, no unit.

Query: Requested read-out: logP. Entry: O=NN(CCCl)C(=O)NCC(=O)O
Reply: -1.25

Query: Requested read-out: logP. Entry: CC(=O)OCC1OC(OC(C)=O)C(NC(=O)C(C)NC(=O)N(CCCl)N=O)C(OC(C)=O)C1OC(C)=O (stereo not drawn)
Reply: 0.71

Query: Requested read-out: logP. Entry: O=NN(CCCl)C(=O)N[C@@H](Cc1ccccc1)C(=O)O
Reply: -0.28

----------
# Test Summary: method code SF-HPLC, from DOI: 10.1016/j.bmc.2015.09.009, PMID: 26385444
Outcome Measure: logP
Lab note: write the figure by itself, no unit.

Query: Requested read-out: logP. Entry: CC1=C(C(=O)Nc2nc3ccccc3s2)C(c2ccccc2)NC(=S)N1 (stereo unspecified)
Reply: 2.03

----------
Listed next: entries and their corresponding logP.

Clc1cc2c(Cl)c(Cl)c(Cl)c(Cl)c2c(Cl)c1Cl :: 7.33

Continue with the compound presented below.
Query: Requested read-out: logP. Entry: Clc1cc2c(Cl)cc(Cl)c(Cl)c2c(Cl)c1Cl
Reply: 6.87

----------
# Test Summary: method code SF, from Kruglik, P.; Leschev, M.; Rakhman'ko, M.; Bubel, N.; Asratyan, V. (1991). Extraction of 1,2,4-triazole and its derivatives by organic solvents. 64(8)1721-1724.
Outcome Measure: logP
Lab note: write the figure by itself, no unit.

O=[N+]([O-])c1nc[nH]n1 :: -0.41
CCCn1cnc([N+](=O)[O-])n1 :: 0.22

Continue with the compound presented below.
Query: Requested read-out: logP. Entry: Cn1cnc([N+](=O)[O-])n1
Reply: -0.45

----------
# Test Summary: method code SF, from DOI: 10.1016/0048-3575(74)90109-6
Outcome Measure: logP
Lab note: write the figure by itself, no unit.

Query: Requested read-out: logP. Entry: Fc1ccc(C(c2ccc(F)cc2)C(Cl)(Cl)Cl)cc1
Reply: 4.62
